The origin of these recorded values is patent US20200207859A1.

This listing pairs binders with measured cell killing IC50, SU-DHL-6 (NHL) cells.
# target_or_system: CD74 (human), P04233
# Sequence (P04233 whole entry): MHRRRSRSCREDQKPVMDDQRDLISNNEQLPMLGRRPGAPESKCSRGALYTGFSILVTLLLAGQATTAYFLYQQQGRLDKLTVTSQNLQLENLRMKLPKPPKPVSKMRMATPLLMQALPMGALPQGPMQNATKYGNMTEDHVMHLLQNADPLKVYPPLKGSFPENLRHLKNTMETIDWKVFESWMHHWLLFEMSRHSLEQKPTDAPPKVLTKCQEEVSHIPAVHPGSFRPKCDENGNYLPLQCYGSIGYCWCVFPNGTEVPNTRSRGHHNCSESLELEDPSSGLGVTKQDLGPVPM
# assay_notes: cell-based or functional assay
Could you give me the number in nM? Just the number is fine.

Worked cases, cell killing IC50, SU-DHL-6 (NHL) cells given:
binder	cell killing IC50, SU-DHL-6 (NHL) cells [nM]
Conjugate B (anti-CD74 IgG-PEG4-maytansine conjugate) (antibody, V domains shown, here or on the partner: modified amino acid residue 30 (pAMF) according to Example 2, position not stated for this conjugate, linked to a PEG4-maytansine linker-payload) VH: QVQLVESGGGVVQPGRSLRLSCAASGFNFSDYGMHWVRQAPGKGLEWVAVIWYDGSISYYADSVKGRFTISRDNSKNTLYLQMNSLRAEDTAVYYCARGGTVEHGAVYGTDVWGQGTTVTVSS VL: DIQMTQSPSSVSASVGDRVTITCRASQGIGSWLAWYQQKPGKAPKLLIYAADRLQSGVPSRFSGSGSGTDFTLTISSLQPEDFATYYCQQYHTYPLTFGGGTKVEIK	1.3
Conjugate C (anti-CD74 IgG-val-cit-PAB-hemiasterlin conjugate) (antibody, V domains shown, here or on the partner: modified amino acid residue 30 (pAMF) according to Example 2, position not stated for this conjugate, linked to val-cit-PAB-hemiasterlin) VH: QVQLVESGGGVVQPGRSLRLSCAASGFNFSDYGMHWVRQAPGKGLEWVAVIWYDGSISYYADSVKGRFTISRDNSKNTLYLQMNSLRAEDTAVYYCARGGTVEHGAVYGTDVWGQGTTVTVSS VL: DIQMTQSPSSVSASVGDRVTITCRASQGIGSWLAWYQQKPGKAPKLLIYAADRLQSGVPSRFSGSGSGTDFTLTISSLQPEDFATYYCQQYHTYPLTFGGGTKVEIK	0.3
Conjugate F (anti-CD74 IgG-PEG4-MMAE conjugate) (antibody, V domains shown, here or on the partner: modified amino acid residue 30 (pAMF) according to Example 2, position not stated for this conjugate, linked to PEG4-MMAE) VH: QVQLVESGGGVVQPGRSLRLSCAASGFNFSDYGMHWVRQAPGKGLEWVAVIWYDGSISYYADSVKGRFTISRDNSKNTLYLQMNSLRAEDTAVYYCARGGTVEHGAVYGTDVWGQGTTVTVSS VL: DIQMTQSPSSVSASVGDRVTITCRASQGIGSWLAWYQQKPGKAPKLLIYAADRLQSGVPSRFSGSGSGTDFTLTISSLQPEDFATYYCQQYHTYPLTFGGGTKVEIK	0.3
Conjugate E (anti-CD74 IgG-PEG4-MMAF conjugate) (antibody, V domains shown, here or on the partner: modified amino acid residue 30 (pAMF) according to Example 2, position not stated for this conjugate, linked to PEG4-MMAF) VH: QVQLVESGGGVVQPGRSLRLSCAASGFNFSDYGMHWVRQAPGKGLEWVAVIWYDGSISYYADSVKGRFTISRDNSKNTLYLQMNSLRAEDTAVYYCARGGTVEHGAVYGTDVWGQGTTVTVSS VL: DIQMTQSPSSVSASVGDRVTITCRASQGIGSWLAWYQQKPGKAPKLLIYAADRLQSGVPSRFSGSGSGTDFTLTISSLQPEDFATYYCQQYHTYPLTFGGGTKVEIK	0.5

Okay, next one:
Please look up its cell killing IC50, SU-DHL-6 (NHL) cells: Conjugate A (anti-CD74 IgG-DBCO-PEG4-maytansine conjugate) (antibody, V domains shown, here or on the partner: para-azidomethyl-L-phenylalanine (pAMF, residue 30) at heavy chain EU position 404 (constant region, outside SEQ ID NO 236), linked to DBCO-PEG4-maytansine) VH: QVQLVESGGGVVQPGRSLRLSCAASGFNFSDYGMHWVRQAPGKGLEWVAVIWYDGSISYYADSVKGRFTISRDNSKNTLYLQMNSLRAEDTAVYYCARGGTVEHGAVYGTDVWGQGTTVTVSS VL: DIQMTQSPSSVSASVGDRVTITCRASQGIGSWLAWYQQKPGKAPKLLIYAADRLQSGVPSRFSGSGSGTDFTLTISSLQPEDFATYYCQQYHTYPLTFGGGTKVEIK
0.6
